System: WaGa
Protocol description: qHTS assay to identify novel small-molecules to repurpose for Merkel cell carcinoma treatment (AID 1296009); note: nearly all actives have a fitted effect of over 60% in size
Conditions used: MCC and control cell lines, CellTiter-Glo viability, 72 h; series mostly up to 46 µM
Description: MCC is a rare and aggressive neuroendocrine skin cancer with limited treatment options. Approximately 80% of MCCs have the Merkel cell polyomavirus (MCPyV) DNA integrated into the host genome (virus-positive: VP-MCC) and viral oncogenes drive oncogenesis. The remaining MCCs are virus-negative (VN-MCC) and are caused by UV mutagenesis. […] Using cell viability as a readout (CellTiter-Glo assay) we found both overlapping and distinct drugs that can be repurposed for the treatment of VP-MCC and VN-MCC. […]
Records with an inconclusive call do not appear. The source made the active and inactive calls. Calls come from the whole dose curve; as a rule, active = well fitted inhibition curve with a large enough effect; inconclusive = small, poorly fitted or top-dose-only effect; inactive = flat fitted curve, though single readings scatter.
Outcome codes: y = active, n = inactive

{"columns": ["Compound", "Qualitative label"],
 "data": [
  ["Cc1cc(C)cc(OCC2CNC(=O)O2)c1 (stereo not drawn)", "n"],
  ["O=C(Nc1ccccc1)OCC(CN1CCCCC1)OC(=O)Nc1ccccc1 (stereo not drawn)", "n"],
  ["CC(=O)NC(=O)c1ccccc1O", "n"],
  ["C[C@H]1[C@H]2CC[C@H]3[C@@H]4CC=C5C[C@@H](N(C)C)CC[C@]5(C)[C@H]4CC[C@]23CN1C", "n"],
  ["Nc1nc(Cl)nc2c1ncn2[C@@H]1O[C@H](CO)[C@@H](O)[C@@H]1F", "y"],
  ["CCC1Nc2cc(Cl)c(S(N)(=O)=O)cc2S(=O)(=O)N1 (stereo not drawn)", "n"],
  ["OC[C@H]1O[C@@H]2O[C@H]3[C@H](O)[C@@H](O)[C@@H](O[C@H]4[C@H](O)[C@@H](O)[C@@H](O[C@H]5[C@H](O)[C@@H](O)[C@@H](O[C@H]6[C@H](O)[C@@H](O)[C@@H](O[C@H]7[C@H](O)[C@@H](O)[C@@H](O[C@H]8[C@H](O)[C@@H](O)[C@@H](O[C@H]1[C@H](O)[C@H]2O)O[C@@H]8CO)O[C@@H]7CO)O[C@@H]6CO)O[C@@H]5CO)O[C@@H]4CO)O[C@@H]3CO", "n"],
  ["NC(=S)N/N=C/c1cccnc1", "n"],
  ["CCCCCCCCCCCCCCCC(=O)O", "n"],
  ["O=C(O)CCC(=O)Nc1ccc(S(=O)(=O)Nc2nccs2)cc1", "n"],
  ["O=C(CCN1CCN2CCCC2C1)N1c2ccccc2Sc2ccc(Cl)cc21 (stereo not drawn)", "n"],
  ["CC(C)[C@@H]1CC[C@@H](C)CC1=O", "n"],
  ["CCC(C(=O)OCCOCCN(CC)CC)c1ccccc1 (stereo not drawn)", "n"],
  ["C=C1c2cccc(O)c2C(O)=C2C(=O)[C@]3(O)C(O)=C(C(N)=O)C(=O)[C@@H](N(C)C)[C@@H]3[C@@H](O)[C@H]12", "n"],
  ["COc1ccc(S(=O)(=O)N2c3ccc(Cl)cc3[C@@](O)(c3ccccc3Cl)[C@H]2C(=O)N2CCC[C@@H]2C(N)=O)cc1OC", "n"],
  ["N/C(=N\\N=C\\c1ccc(Cl)cc1)N/N=C/c1ccc(Cl)cc1", "n"],
  ["Cc1cccc(C)c1NC(=O)c1ccccc1C(=O)O", "n"],
  ["O=C(O)Cc1csc(-c2ccc(Cl)cc2)n1", "n"],
  ["CC(C)=CCOc1ccc(/C=C/C(=O)c2ccc(OCC=C(C)C)cc2OCC(=O)O)cc1", "n"],
  ["Cc1cn([C@H]2C[C@H](F)[C@@H](CO)O2)c(=O)[nH]c1=O", "n"],
  ["CCN1CCCC(OC(=O)C(c2ccccc2)c2ccccc2)C1 (stereo not drawn)", "n"],
  ["O=C1C(=O)c2ccccc2C(O)=C1C1CCC(c2ccc(Cl)cc2)CC1 (stereo not drawn)", "n"],
  ["CC(C)NCC(O)c1ccc2ccccc2c1 (stereo not drawn)", "n"]
]}
